system: human Cav2.2 (Homo sapiens, UniProt Q00975)
Sequence (Q00975 whole entry): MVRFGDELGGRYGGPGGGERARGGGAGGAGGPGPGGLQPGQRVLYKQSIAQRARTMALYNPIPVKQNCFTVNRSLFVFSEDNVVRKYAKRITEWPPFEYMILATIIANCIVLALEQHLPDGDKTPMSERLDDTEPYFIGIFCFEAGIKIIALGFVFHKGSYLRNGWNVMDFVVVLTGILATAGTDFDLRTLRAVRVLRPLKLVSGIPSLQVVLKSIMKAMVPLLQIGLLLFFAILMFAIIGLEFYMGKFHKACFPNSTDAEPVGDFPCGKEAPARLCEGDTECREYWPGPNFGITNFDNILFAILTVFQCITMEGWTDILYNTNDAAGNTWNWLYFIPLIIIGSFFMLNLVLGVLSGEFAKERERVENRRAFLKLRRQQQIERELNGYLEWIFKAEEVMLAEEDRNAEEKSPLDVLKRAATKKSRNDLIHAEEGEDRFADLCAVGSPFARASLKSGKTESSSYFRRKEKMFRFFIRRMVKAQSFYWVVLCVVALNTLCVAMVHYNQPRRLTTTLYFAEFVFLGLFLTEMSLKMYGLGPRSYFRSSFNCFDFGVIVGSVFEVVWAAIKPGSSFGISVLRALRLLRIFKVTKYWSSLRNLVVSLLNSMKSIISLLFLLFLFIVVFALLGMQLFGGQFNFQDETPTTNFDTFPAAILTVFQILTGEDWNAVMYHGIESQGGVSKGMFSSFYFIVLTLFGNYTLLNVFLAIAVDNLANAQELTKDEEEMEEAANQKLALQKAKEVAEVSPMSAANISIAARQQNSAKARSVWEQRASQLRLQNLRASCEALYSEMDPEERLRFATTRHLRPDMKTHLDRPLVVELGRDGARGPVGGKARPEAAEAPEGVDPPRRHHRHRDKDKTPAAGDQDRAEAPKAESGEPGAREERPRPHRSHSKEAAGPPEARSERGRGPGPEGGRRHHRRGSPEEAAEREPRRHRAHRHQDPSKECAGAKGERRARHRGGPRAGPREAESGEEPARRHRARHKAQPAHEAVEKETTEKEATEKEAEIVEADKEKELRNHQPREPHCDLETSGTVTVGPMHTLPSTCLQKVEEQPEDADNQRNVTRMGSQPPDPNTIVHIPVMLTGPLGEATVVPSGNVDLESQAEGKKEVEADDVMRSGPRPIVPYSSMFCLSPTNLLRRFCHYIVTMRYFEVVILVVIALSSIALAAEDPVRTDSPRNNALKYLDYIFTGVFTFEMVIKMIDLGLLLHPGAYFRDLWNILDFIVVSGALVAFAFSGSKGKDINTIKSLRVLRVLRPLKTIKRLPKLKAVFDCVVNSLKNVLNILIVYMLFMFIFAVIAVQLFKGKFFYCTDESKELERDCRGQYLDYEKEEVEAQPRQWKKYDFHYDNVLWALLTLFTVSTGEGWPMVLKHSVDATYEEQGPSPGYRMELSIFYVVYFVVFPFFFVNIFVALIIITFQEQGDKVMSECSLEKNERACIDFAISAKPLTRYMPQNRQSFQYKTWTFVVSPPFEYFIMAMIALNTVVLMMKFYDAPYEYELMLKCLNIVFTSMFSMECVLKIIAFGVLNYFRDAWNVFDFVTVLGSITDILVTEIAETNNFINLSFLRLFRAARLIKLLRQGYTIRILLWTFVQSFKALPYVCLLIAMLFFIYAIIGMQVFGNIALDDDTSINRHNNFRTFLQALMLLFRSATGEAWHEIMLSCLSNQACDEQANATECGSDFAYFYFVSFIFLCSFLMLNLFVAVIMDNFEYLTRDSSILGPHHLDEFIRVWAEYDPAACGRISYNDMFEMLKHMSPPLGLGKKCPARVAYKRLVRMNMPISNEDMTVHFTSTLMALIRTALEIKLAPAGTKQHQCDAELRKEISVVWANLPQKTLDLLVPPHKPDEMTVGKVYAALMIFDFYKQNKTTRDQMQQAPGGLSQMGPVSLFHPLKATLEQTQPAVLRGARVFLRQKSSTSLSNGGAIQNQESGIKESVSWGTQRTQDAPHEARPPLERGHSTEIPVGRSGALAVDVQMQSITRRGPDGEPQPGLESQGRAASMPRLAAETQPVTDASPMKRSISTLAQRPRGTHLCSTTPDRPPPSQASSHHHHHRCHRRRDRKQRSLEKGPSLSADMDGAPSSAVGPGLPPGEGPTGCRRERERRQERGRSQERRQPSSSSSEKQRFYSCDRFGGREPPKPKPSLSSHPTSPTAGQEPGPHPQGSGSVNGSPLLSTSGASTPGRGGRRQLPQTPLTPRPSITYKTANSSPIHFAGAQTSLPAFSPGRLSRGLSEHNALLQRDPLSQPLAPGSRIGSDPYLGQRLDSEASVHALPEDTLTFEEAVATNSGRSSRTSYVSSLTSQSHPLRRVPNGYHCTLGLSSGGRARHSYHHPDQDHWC
Sequence (P54289 25-956 partner limits assumed): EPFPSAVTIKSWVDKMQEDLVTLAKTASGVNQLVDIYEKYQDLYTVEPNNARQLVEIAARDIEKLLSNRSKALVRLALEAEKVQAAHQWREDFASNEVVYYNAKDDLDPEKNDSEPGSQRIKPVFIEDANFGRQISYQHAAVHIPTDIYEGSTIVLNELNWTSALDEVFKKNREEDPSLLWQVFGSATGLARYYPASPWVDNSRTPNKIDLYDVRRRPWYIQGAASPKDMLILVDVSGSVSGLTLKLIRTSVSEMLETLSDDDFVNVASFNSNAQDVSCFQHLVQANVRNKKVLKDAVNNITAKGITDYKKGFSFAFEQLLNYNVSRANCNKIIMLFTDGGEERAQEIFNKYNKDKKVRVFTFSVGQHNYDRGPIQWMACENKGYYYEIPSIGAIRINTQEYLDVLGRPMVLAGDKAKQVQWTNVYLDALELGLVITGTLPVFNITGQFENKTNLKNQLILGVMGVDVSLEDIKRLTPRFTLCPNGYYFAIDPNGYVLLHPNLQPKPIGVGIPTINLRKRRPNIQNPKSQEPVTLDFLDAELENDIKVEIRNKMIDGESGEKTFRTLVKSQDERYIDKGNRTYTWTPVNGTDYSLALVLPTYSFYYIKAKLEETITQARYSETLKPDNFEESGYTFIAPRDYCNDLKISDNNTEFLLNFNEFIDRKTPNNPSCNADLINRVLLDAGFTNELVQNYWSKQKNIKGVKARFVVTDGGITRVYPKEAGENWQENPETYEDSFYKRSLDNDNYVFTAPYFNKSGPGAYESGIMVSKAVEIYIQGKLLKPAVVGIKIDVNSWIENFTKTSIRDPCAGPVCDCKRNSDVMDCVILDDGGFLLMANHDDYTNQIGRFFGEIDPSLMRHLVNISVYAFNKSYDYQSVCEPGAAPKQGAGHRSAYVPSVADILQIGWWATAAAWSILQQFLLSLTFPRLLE
Sequence (P54289 957-1103 partner limits assumed): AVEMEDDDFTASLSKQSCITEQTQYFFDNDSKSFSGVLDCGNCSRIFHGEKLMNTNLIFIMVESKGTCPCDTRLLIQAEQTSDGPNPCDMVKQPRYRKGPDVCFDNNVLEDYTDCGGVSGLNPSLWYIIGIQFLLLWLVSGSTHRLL
Sequence (P54284 whole entry partner): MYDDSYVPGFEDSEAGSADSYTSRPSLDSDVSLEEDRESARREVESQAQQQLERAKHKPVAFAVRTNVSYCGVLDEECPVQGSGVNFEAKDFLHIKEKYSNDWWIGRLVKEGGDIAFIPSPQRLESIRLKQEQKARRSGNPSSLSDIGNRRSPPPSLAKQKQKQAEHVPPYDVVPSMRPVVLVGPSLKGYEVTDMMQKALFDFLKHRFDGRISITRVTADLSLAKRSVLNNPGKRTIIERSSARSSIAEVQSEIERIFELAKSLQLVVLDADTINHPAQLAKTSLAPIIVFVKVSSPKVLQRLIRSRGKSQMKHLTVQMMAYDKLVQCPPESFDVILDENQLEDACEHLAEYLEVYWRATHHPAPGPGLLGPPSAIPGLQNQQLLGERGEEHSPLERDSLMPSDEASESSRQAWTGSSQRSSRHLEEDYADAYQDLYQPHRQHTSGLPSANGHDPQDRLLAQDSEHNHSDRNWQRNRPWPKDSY
method.notes: Assessment of calcium channel activity using FLIPR (Ca2+ influx in IMR32 cells)
Type: cell-based
result.type: IC50 (nM)

Use the examples below as a reference point.
molecule	system	IC50 [nM]
N[C@@H](CC1CC1)C(=O)N[C@H]1CC[C@@H]2CN(c3ccc(OC(F)(F)F)cc3)C[C@@H]21 [Example 776]	human Cav2.2 (Homo sapiens, UniProt Q00975)	2530
O=C(N[C@H]1CC[C@H]2CN(Cc3cccc(C(F)(F)F)c3)C[C@H]21)C(C1CCCCC1)C1CCCCC1 [Example 54]	human Cav2.2 (Homo sapiens, UniProt Q00975)	460
Fc1ccc2[nH]c(CN[C@H]3CC[C@@H]4CN(c5cccc(OC(F)(F)F)c5)C[C@@H]43)cc2c1 [Example 715]	human Cav2.2 (Homo sapiens, UniProt Q00975)	2780

(A) O=S(=O)(N[C@H]1CC[C@@H]2CN(c3cccc(C(F)(F)F)n3)C[C@@H]21)c1cccc(F)c1 [Example 702]
(B) O=C(N[C@H]1CC[C@@H]2CN(c3ccccc3C(F)(F)F)C[C@@H]21)[C@@H]1C[C@@H](F)CN1 [Example 622]
(C) O=C(N[C@@H]1CC[C@H]2CN(Cc3cccc(C(F)(F)F)c3)C[C@H]21)C(C1CCCCC1)C1CCCCC1 [Example 75]
**Query** Returns the items ordered by IC50, from maximum to minimum. Provide the ranking by listing each label in its place in the requested order.
**Result** A, B, C
(A: 2550 nM, B: 1690 nM, C: 450 nM)
